# target-entity: SFRP-1 (Homo sapiens, UniProt Q8N474)
# Sequence (Q8N474 32-314): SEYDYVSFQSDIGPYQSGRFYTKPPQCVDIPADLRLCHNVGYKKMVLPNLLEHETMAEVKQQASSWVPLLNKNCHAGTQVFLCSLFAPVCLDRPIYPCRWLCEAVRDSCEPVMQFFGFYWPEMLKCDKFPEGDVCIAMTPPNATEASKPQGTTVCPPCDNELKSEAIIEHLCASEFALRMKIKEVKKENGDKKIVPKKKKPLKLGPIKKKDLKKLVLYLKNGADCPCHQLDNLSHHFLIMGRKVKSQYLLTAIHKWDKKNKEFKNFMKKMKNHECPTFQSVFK
# assay-text: Cell-based assay for in vitro measurement of SFRP-1/SARP2 antagonist activity (U2OS cells co-transfected with 16x TCF-tk-Luciferase reporter, Wnt and hSFRP-1);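 note: U2OS cells co-transfected with a TCF-tk luciferase reporter, a Wnt vector, hSFRP-1 or empty vector and CMV-βgal, luciferase luminescence read in cell lysates alongside βgal activity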
# condition-context: U2OS, read-out: Fold Induction without SFRP-1, Conc 15 μM; without SFRP-1, single dose
So basically: fold induction at 15 µM at 1 or higher? That is met. Lower than 1? That is not met.

{"compound": "Cc1ccc(S(=O)(=O)c2ccccc2)cc1S(=O)(=O)NC1CCN(C(=O)OC(C)(C)C)CC1 [Example 446]", "assigned-class": "met"}
{"compound": "CCc1ccc(S(=O)(=O)c2ccccc2)cc1S(=O)(=O)NCCC(=O)OC [Example 222]", "assigned-class": "not met"}
{"compound": "Cc1ccc(S(=O)(=O)c2ccccc2)cc1S(=O)(=O)NC1CCN(Cc2ccccc2)C1 (stereo not shown) [Example 414]", "assigned-class": "met"}
{"compound": "CC(C)c1ccc(S(=O)(=O)c2ccc(F)cc2)cc1S(=O)(=O)NCCC1CCOCC1 [Example 322]", "assigned-class": "met"}
{"compound": "COc1ccc(S(=O)(=O)c2ccccc2)cc1S(=O)(=O)NCCCn1ccnc1 [Example 242]", "assigned-class": "met"}
{"compound": "Cc1ccc(S(=O)(=O)c2ccccc2)c(C)c1S(=O)(=O)NCCc1ccccn1 [Example 472]", "assigned-class": "not met"}
{"compound": "Cc1ccc(S(=O)(=O)c2ccccc2)cc1S(=O)(=O)NCCCN(C)C [Example 216]", "assigned-class": "met"}
{"compound": "Cc1ccc(S(=O)(=O)c2ccccc2-c2ccccc2)cc1S(=O)(=O)NCCc1ccccn1 [Example 432]", "assigned-class": "not met"}
{"compound": "Cc1ccc(S(=O)(=O)c2ccc(N[C@H](C)C3CCCCC3)cc2)cc1S(=O)(=O)NCCCn1ccnc1 [Example 372]", "assigned-class": "not met"}
{"compound": "Cc1ccc(S(=O)(=O)c2ccccc2)cc1S(=O)(=O)NCCc1c[nH]c2ccccc12 [Example 294]", "assigned-class": "met"}
{"compound": "CC(=O)c1ccc(S(=O)(=O)c2ccc(C)c(S(=O)(=O)NCCc3ccccn3)c2)cc1 [Example 403]", "assigned-class": "met"}
{"compound": "Cc1ccc(S(=O)(=O)c2ccccc2)cc1S(=O)(=O)NC(C)(C)CO [Example 404]", "assigned-class": "met"}
{"compound": "Cc1ccc(S(=O)(=O)c2ccccc2)cc1S(=O)(=O)NC1CCN(C(=O)c2cccc(C(F)(F)F)c2)CC1 [Example 465]", "assigned-class": "met"}

These data points were gathered from patent US20060276464A1.
